// data source = PubChem BioAssay AID504850

- assayMethodText: Confirmation screen for delayed death inhibitors of the malarial parasite plastid, 48 hour incubation; note: nearly all actives have a fitted effect of over 65% in size
- cond: P. falciparum-infected erythrocytes, luciferase growth; series mostly up to 28.7 µM
Hit rate of the full screen: of about 2,300 compounds, about 1,200 (52%) were called active. Not shown: some 34% with an inconclusive outcome. Calls come from the whole dose curve; as a rule, active = well fitted inhibition curve with a large enough effect; inconclusive = small, poorly fitted or top-dose-only effect, or effect the other way; inactive = no such curve, though single readings can be large or run the other way. So high a share suggests a set chosen from earlier hits. Some of the results follow.
Respond with a class label; see active, inactive

Consider the worked cases shown below.
# molecule, group
measured = [
    ("CC(C)c1ccc(N2C(=O)NC(=O)/C(=C\\C=C\\c3ccco3)C2=O)cc1", "inactive"),
    ("CC(C)CCOP(N)(=O)Oc1ccccc1 (stereo not given)", "active"),
    ("O=C1/C(=C/c2ccccc2)C[C@@]2(O)[C@H]3Cc4ccc(O)c5c4[C@@]2(CCN3CC2CC2)C1O5 (stereo not given in full)", "active"),
    ("CN1C[C@H](C(=O)N[C@]2(C)O[C@@]3(O)[C@@H]4CCCN4C(=O)[C@H](Cc4ccccc4)N3C2=O)C[C@@H]2c3cccc4[nH]cc(c34)C[C@H]21", "active"),
    ("CCC(C(=O)N1CCC2(CC1)OCCO2)n1c2ccccc2c2nc(=O)cc(C)n21 (stereo not given)", "active"),
]

Q. Check the results log: what was the call for "COC(=O)C1=C(c2ccc(F)cc2OCc2ccccc2)C[C@@H]2CC[C@H]1N2C(=O)NCc1ccccc1Br" ?
A. active

Q. Would you mind doing "COC(=O)C1=C(c2ccccc2OCc2ccccc2)C[C@@H]2CC[C@H]1N2C(=O)NCCOc1ccc(OC)cc1" as well?
A. active

Q. Item: "Oc1ccc(-[n+]2c(-c3ccccc3)cc(-c3ccccc3)cc2-c2ccccc2)cc1"
A. active

Q. Further, for Cc1cc2ccccn2c1C(C[N+](=O)[O-])c1c(F)cccc1Cl (stereo not given) ?
A. active

Q. Now the same for "O=[N+]([O-])c1ccc(NC2CCCC2)c2ccncc12"
A. inactive

----------
- assayMethodText: Confirmation screen for delayed death inhibitors of the malarial parasite plastid, 48 hour incubation; note: nearly all actives have a fitted effect of over 65% in size
- cond: P. falciparum-infected erythrocytes, luciferase growth; series mostly up to 28.7 µM
Hit rate of the full screen: of about 2,300 compounds, about 1,200 (52%) were called active. Another 34% or so got no clear call; they are omitted. The call rests on the fitted dose curve; in most records, active means well fitted inhibition curve with a large enough effect; inconclusive means small, poorly fitted or top-dose-only effect, or effect the other way; inactive means no such curve, though single readings can be large or run the other way. The set was probably picked from earlier hits. Some of the results follow.
Thanks in advance; please answer with one of these: 1 = active, -1 = inactive

Look over these answered cases.
# compound, group
records = [
    ("COc1ccc(-c2cc(-c3ccccc3)[n+](C)c(-c3ccccc3)c2)cc1", 1),
    ("CCOC(=O)COc1ccc2c(c1)c(C(C)=O)c(C)n2Cc1ccccc1", -1),
    ("COc1ccc(C(=O)N/N=C/C23CC[C@@H](O)CC2(O)CC[C@@H]2[C@@H]3CCC3(C)C(C4=CC(=O)OC4)CCC23O)cc1 (some centres undefined)", -1),
    ("C[n+]1c(-c2ccccc2)cc(-c2ccc(Cl)cc2)cc1-c1ccccc1", 1),
    ("CN1CCc2cc3c(c4c2C1Cc1ccccc1-4)OCO3 (centres undefined)", 1),
]

Q. Check the results log: what was the call for "C[n+]1c2cc(N)ccc2cc2ccc(N)cc21" ?
A. 1

Q. Another compound to check: "CN1C2CCC1/C(=C/c1ccccn1)C(=O)/C2=C\c1ccccn1"
A. 1

Q. Subsequent entry: "Clc1ccccc1CN1CCNCC1"
A. -1

Q. Entry COc1cc(C(=O)N/N=C/C23CC[C@@H](O)CC2(O)CC[C@@H]2[C@@H]3CCC3(C)C(C4=CC(=O)OC4)CCC23O)ccc1O (some centres undefined) please
A. -1

----------
- assayMethodText: Confirmation screen for delayed death inhibitors of the malarial parasite plastid, 48 hour incubation; note: nearly all actives have a fitted effect of over 65% in size
- cond: P. falciparum-infected erythrocytes, luciferase growth; series mostly up to 28.7 µM
About 1,200 (52%) of roughly 2,300 compounds were called active. Another 34% or so got no clear call; they are omitted. The call rests on the fitted dose curve; in most records, active means well fitted inhibition curve with a large enough effect; inconclusive means small, poorly fitted or top-dose-only effect, or effect the other way; inactive means no such curve, though single readings can be large or run the other way. The set was probably picked from earlier hits. The list shows a part of the results.
Entry note: the call must match one of active, inactive

Look over these answered cases.
# compound, group
data = [
    ("C=C1C(=O)O[C@@H]2C[C@@H](C)[C@@H]3C=CC(=O)[C@@]3(C)[C@@H](O)[C@H]12", "active"),
    ("CCCCCCn1c(=O)c(C(=O)Nc2ncccc2O)c(O)c2ccccc21", "inactive"),
    ("C=C1C(=O)O[C@@H]2C[C@@H](C)[C@@H]3C=CC(=O)[C@@]3(C)[C@@H](OC(=O)CC(=O)O[C@H]3[C@@H]4C(=C)C(=O)O[C@@H]4C[C@@H](C)[C@@H]4C=CC(=O)[C@]43C)[C@H]12", "active"),
    ("CC[C@H]1CN2CCc3cc(OC)c(OC)cc3[C@H]2C[C@@H]1C[C@@H]1NCCc2cc(OC)c(OC)cc21", "active"),
    ("C[C@]12CCC3C(CCC4=CC(O)CC[C@@]43/C=N/O)C1(O)CCC2C1=CC(=O)OC1 (stereo partly drawn)", "inactive"),
    ("C=CCn1c(O)c(N=Nc2c(C)n(C)n(-c3ccccc3)c2=O)c(=O)[nH]c1=S", "active"),
]

Q. Dear colleague, could you share the recorded outcome for CC[C@H]1CN2CCc3cc(OC)c(OC)cc3C2C[C@@H]1C[C@H]1NCCc2cc(OC)c(OC)cc21 (stereo partly drawn) when you have a moment?
A. active

Q. Now the compound "COC(=O)c1nc(-c2ccc3c(n2)C(=O)C(N)=C(OC)C3=O)c(N)c(-c2ccc(OC)c(OC)c2O)c1C"
A. active

----------
- assayMethodText: Confirmation screen for delayed death inhibitors of the malarial parasite plastid, 48 hour incubation; note: nearly all actives have a fitted effect of over 65% in size
- cond: P. falciparum-infected erythrocytes, luciferase growth; series mostly up to 28.7 µM
Hit rate of the full screen: of about 2,300 compounds, about 1,200 (52%) were called active. Not shown: some 34% with an inconclusive outcome. Calls come from the whole dose curve; as a rule, active = well fitted inhibition curve with a large enough effect; inconclusive = small, poorly fitted or top-dose-only effect, or effect the other way; inactive = no such curve, though single readings can be large or run the other way. So high a share suggests a set chosen from earlier hits. The list shows a part of the results.
// classify into T (active), F (inactive)

# molecule, group
measured = [
    ("CN(C)[C@@H]1C(=O)C(C(N)=O)=C(O)[C@@]2(O)C(=O)C3=C(O)c4c(O)cccc4[C@@](C)(O)C3[C@H](O)C12 (some centres undefined)", "T"),
    ("C[C@@H]1C[C@@H]2O[C@H]2/C=C\\C=C\\C(=O)Cc2c(Cl)c(O)cc(O)c2C(=O)O1", "T"),
    ("Cn1cc([N+](=O)[O-])c(C(=O)Nc2ccc3c(C(F)(F)F)cc(=O)oc3c2)n1", "F"),
]

Then this molecule:
Q. Please let me know the test result on file for C[C@@H]1CC[C@H]2[C@@H](C)C(=O)O[C@@H]3OC4(C)CC[C@@H]1C32OO4 (some centres undefined) .
A. T

----------
- assayMethodText: Confirmation screen for delayed death inhibitors of the malarial parasite plastid, 48 hour incubation; note: nearly all actives have a fitted effect of over 65% in size
- cond: P. falciparum-infected erythrocytes, luciferase growth; series mostly up to 28.7 µM
- Description: The goal of this screen is to discover new antimalarial compounds that act by inhibiting the development of the apicoplast in the malarial parasite Plasmodium falciparum. The biochemical processes that make this organelle essential for erythrocytic stage parasites are not well understood. […] Growth inhibition is detected by a decrease in luciferase activity. […]
The whole screen tested about 2,300 compounds, of which about 1,200 (52%) were called active. Roughly 34% stayed inconclusive and do not appear here. The call rests on the fitted dose curve; in most records, active means well fitted inhibition curve with a large enough effect; inconclusive means small, poorly fitted or top-dose-only effect, or effect the other way; inactive means no such curve, though single readings can be large or run the other way. The set was probably picked from earlier hits. The list shows a part of the results.
Answer with one of the outcomes 1.0 = active, 0.0 = inactive

Q. Which result was noted for this compound in the test: "O=c1oc2ccccc2c(O)c1[C@H]1c2ccc(O)cc2Oc2c1c(=O)oc1ccccc21"
A. 0.0

Q. Now give it for "C[C@H]1C[C@@H](C)C(=O)[C@@H]([C@H](O)CC2CC(=O)NC(=O)C2)C1" too.
A. 1.0

Q. Item: "O=[N+]([O-])c1cccc2c([As](=O)(O)O)cccc12"
A. 1.0

Q. Check "Cc1ccc(C(C)C)c(OCC(=O)N2CCN(Cc3nc4cc([N+](=O)[O-])ccc4n3C)CC2)c1" too.
A. 0.0

Q. Repeat for the following compound: "C=C[C@H]1CN2CC[C@H]1C[C@@H]2[C@@H](O)c1ccnc2ccccc12"
A. 1.0
